Target: PfCSP full length (Plasmodium falciparum (isolate NF54), UniProt P19597)
Sequence (P19597 20-375): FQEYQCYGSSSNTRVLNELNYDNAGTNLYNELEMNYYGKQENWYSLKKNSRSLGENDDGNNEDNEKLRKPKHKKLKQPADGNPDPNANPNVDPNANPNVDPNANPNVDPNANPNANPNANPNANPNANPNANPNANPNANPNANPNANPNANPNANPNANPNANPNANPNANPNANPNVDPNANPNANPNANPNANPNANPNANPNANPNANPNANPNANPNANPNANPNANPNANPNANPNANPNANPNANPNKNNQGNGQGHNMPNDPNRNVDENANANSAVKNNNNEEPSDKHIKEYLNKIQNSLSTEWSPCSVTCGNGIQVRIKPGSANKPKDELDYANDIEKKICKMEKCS
Assay: ELISA AUC
measured.parameter: binding score

| binder | binding score |
| --- | --- |
| CL-513780 (antibody, V domains shown, peptides N-terminally acetylated and C-terminally amidated) VH: QVQLVESGGGVVQPGRSLRLSCTASGFIFSNYGMYWVRQAPGKGLDWVALIWYDGSNKYYVGSVKGRFTISRDNSKNTLYLQMNSLRAEDTAVYYCARAGKYSGSGSYLDSWGQGTLVTVSS VL: DIQMTPSPSILSASVGDRVTITCRASQNISSWLAWYQQKPGKAPKLLIYKASSLESGVPSRFSGSGSGTEFTLTISSLQPDDFATYFCQQYYSYWTFGQGTKVEIK | 2.48 |

input: Look up binding score of CL-510632 (antibody, V domains shown, peptides N-terminally acetylated and C-terminally amidated) VH: QVQLVESGGGVVQPGRSLRLSCAASGFTFSNYGMHWVRQAPGKGLEWVAVIWYDGSNKFYADSVKGRFTISRDNSKNTLYLQTNSLRAEDTAVYYCARVYYYDSGNYLDYWGQGTLVAVSS VL: DIQMTQSPSSVSASVGDRVTITCRASQGINNCLAWYQQKPGKAPKLLIYAASSLQSGVPSRFSGSGSGTDFTLTISNLQPEDFATYCCQQANSFPWTFGQGTKVEIK and report it.
output: 1.9
